# measurement description: Cytotoxicity against human MCF-10A assessed as cell viability under normoxia conditions measured after 72 hrs by MTT assay
# Assay type: toxicity, cell-based
# particulars: MCF-10A cells
Hi there, I'd appreciate the recorded IC50 at 72 h for every entry that follows.
Answer with a number only, understood to be in µM.

Ask: Identify IC50 at 72 h associated with the compound `NS(=O)(=O)c1ccc2c(c1)C(=O)C(=O)N2Cc1ccc(SC(F)(F)F)cc1`
Result: 6.4

Ask: Give recorded IC50 at 72 h. `NS(=O)(=O)c1ccc2c(c1)C(=O)C(=O)N2Cc1ccc(Cl)c(Cl)c1`
Result: 6.6

Ask: Write down IC50 at 72 h measured for item COc1cccc2c1C(=O)c1c(O)c3c(c(O)c1C2=O)C[C@@](O)(C(=O)CO)C[C@@H]3O[C@H]1C[C@H](N)[C@H](O)[C@H](C)O1 [DOXORUBICIN]
Result: 0.047

Ref: ChEMBL document CHEMBL5046238
